Reported viability, T/C is given for each of the following compounds.
Tested on: NCI-H1341 complex spheroids, percent test/control
experimental_protocol: Anticancer human tumor NCI-H1341 cell line growth inhibition [AhR];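 further: spheroids exposed to agents for seven days before readout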
condition_description: second compound 0.316 µM; first compound 3.16 µM; stronger effect = lower value
Source text: Multicellular complex tumor spheroid response to aryl hydrocarbon receptor antagonists in combination with a variety of drugs and investigational agents in selected tumor cell lines […] Compounds. […] If the clinical Cmax for an agent had not been determined, the highest concentration tested was 10 microM (Table 1). […]

# annotated cases, reported viability, T/C shown
CC1COCCN1c1cc(C2(S(C)(=N)=O)CC2)nc(-c2ccnc3[nH]ccc23)n1 (stereo not drawn) + CC(CO)NC(=O)c1cc(-c2ccc(Cl)cc2)nn(-c2cnn(C)c2)c1=O | 32.4%
CC1(C)CCC(CN2CCN(c3ccc(C(=O)NS(=O)(=O)c4ccc(NCC5CCOCC5)c([N+](=O)[O-])c4)c(Oc4cnc5[nH]ccc5c4)c3)CC2)=C(c2ccc(Cl)cc2)C1 + CC(CO)NC(=O)c1cc(-c2ccc(Cl)cc2)nn(-c2cnn(C)c2)c1=O | 43.1%

[Q] Provide only the value of recorded viability, T/C for O=C(c1cc(Cc2n[nH]c(=O)c3ccccc23)ccc1F)N1CCN(C(=O)C2CC2)CC1 + CC(CO)NC(=O)c1cc(-c2ccc(Cl)cc2)nn(-c2cnn(C)c2)c1=O
[A] 77.1%

----------
Test system: NCI-H1341 complex spheroids, percent test/control
experimental_protocol: Anticancer human tumor NCI-H1341 cell line growth inhibition [AhR];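 further: spheroids exposed to agents for seven days before readout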
condition_description: second compound 10 µM; first compound 0.00949 µM; stronger effect = lower value
Reported viability, T/C is given for each of the following compounds.

# annotated cases, reported viability, T/C shown
O=C(C=Cn1cnc(-c2cc(C(F)(F)F)cc(C(F)(F)F)c2)n1)NNc1cnccn1 + Cc1cncc(-c2nc(NCCc3c[nH]c4ccccc34)c3ncn(C(C)C)c3n2)c1 | 35.3%
O=C(C=Cn1cnc(-c2cc(C(F)(F)F)cc(C(F)(F)F)c2)n1)NNc1cnccn1 + CC(CO)NC(=O)c1cc(-c2ccc(Cl)cc2)nn(-c2cnn(C)c2)c1=O | 62.8%
CCN(c1cc(-c2ccc(CN3CCOCC3)cc2)cc(C(=O)NCc2c(C)cc(C)[nH]c2=O)c1C)C1CCOCC1 + Cc1cncc(-c2nc(NCCc3c[nH]c4ccccc34)c3ncn(C(C)C)c3n2)c1 | 40.6%
CCc1c2c(nc3ccc(O)cc13)-c1cc3c(c(=O)n1C2)COC(=O)[C@]3(O)CC + Cc1cncc(-c2nc(NCCc3c[nH]c4ccccc34)c3ncn(C(C)C)c3n2)c1 | 14.9%
Nc1ncn(C2CC(O)C(CO)S2)c(=O)n1 (stereo unspecified) + Cc1cncc(-c2nc(NCCc3c[nH]c4ccccc34)c3ncn(C(C)C)c3n2)c1 | 42.1%

// next item, viability, T/C requested
[Q] Provide only the value of recorded viability, T/C for O=C(C=Cn1cnc(-c2cc(C(F)(F)F)cc(C(F)(F)F)c2)n1)NNc1cnccn1 + Cc1ccccc1N=Nc1ccc(NC(=O)c2ccnn2C)c(C)c1
[A] 40.7%

----------
Tested on: NCI-H1341 complex spheroids, percent test/control
experimental_protocol: Anticancer human tumor NCI-H1341 cell line growth inhibition [AhR];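 further: spheroids exposed to agents for seven days before readout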
condition_description: curve of first compound; second compound 1 µM
Please assign No whenever IC50 is at or above 300 nM, and Yes whenever it is below.

Worked examples, 6 compounds total:
COc1cccc2c1C(=O)c1c(O)c3c(c(O)c1C2=O)CC(O)(C(=O)CO)CC3OC1CC(N)C(O)C(C)O1 (configuration not stated) + CC(CO)NC(=O)c1cc(-c2ccc(Cl)cc2)nn(-c2cnn(C)c2)c1=O | Yes
NS(=O)(=O)OCC1CC(n2ccc3c(NC4CCc5ccccc54)ncnc32)CC1O (configuration not stated) + Cc1cncc(-c2nc(NCCc3c[nH]c4ccccc34)c3ncn(C(C)C)c3n2)c1 | Yes
Nc1ccn(C2OC(CO)C(O)C2(F)F)c(=O)n1 (configuration not stated) + Cc1ccccc1N=Nc1ccc(NC(=O)c2ccnn2C)c(C)c1 | Yes
CC(C)c1c(-c2ccccc2)nc2c(C#N)c[nH]n2c1=O + CC(CO)NC(=O)c1cc(-c2ccc(Cl)cc2)nn(-c2cnn(C)c2)c1=O | No
CC(C)CC(NC(=O)C(Cc1ccccc1)NC(=O)c1cnccn1)B(O)O (configuration not stated) + Cc1cncc(-c2nc(NCCc3c[nH]c4ccccc34)c3ncn(C(C)C)c3n2)c1 | Yes
COc1cc(C2c3cc4c(cc3C(OC3OC5COC(C)OC5C(O)C3O)C3COC(=O)C23)OCO4)cc(OC)c1O (configuration not stated) + CC(CO)NC(=O)c1cc(-c2ccc(Cl)cc2)nn(-c2cnn(C)c2)c1=O | No

[Q] Lab note: IC50 threshold 300 nM. Does this compound come in strictly under it? Nc1ncn(C2CC(O)C(CO)S2)c(=O)n1 (configuration not stated) + Cc1ccccc1N=Nc1ccc(NC(=O)c2ccnn2C)c(C)c1
[A] Yes

[Q] Lab note: IC50 threshold 300 nM. Does this compound come in strictly under it? CCN(c1cc(-c2ccc(CN3CCOCC3)cc2)cc(C(=O)NCc2c(C)cc(C)[nH]c2=O)c1C)C1CCOCC1 + Cc1ccccc1N=Nc1ccc(NC(=O)c2ccnn2C)c(C)c1
[A] No

[Q] Lab note: IC50 threshold 300 nM. Does this compound come in strictly under it? CCN(c1cc(-c2ccc(CN3CCOCC3)cc2)cc(C(=O)NCc2c(C)cc(C)[nH]c2=O)c1C)C1CCOCC1 + Cc1cncc(-c2nc(NCCc3c[nH]c4ccccc34)c3ncn(C(C)C)c3n2)c1
[A] No

[Q] Lab note: IC50 threshold 300 nM. Does this compound come in strictly under it? O=C(C=Cc1cccc(S(=O)(=O)Nc2ccccc2)c1)NO + CC(CO)NC(=O)c1cc(-c2ccc(Cl)cc2)nn(-c2cnn(C)c2)c1=O
[A] Yes

[Q] Lab note: IC50 threshold 300 nM. Does this compound come in strictly under it? CC1COCCN1c1cc(C2(S(C)(=N)=O)CC2)nc(-c2ccnc3[nH]ccc23)n1 (configuration not stated) + Cc1ccccc1N=Nc1ccc(NC(=O)c2ccnn2C)c(C)c1
[A] No

[Q] Lab note: IC50 threshold 300 nM. Does this compound come in strictly under it? COc1cccc2c1C(=O)c1c(O)c3c(c(O)c1C2=O)CC(O)(C(=O)CO)CC3OC1CC(N)C(O)C(C)O1 (configuration not stated) + Cc1cncc(-c2nc(NCCc3c[nH]c4ccccc34)c3ncn(C(C)C)c3n2)c1
[A] Yes
